# tested_system: BRD2BD2 (Homo sapiens, UniProt P25440)
# Sequence (P25440 344-453 limits assumed): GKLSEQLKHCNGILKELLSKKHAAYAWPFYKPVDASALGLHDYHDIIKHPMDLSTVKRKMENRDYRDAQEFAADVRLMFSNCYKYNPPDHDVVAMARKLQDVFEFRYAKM
# assay_text: competitive FP assay, BRD2 BD2 -/+ FKBP12
# Format: binding
# condition: 15 µM FKBP12; read-out: Binding to BRD2BD2 + FKBP12 Kd
assay_readout: Kd
Numeric answer plus unit only.

Below: 3 molecules and their reported Kd.
Sample Cc1sc2c(c1C)C(c1ccc(Cl)cc1)=NC(CC(=O)NCCOCCn1cc(COCC3CN(Cc4ccccn4)C(=O)C4CCCC3N4S(=O)(=O)c3cc(Cl)cc(Cl)c3)nn1)c1nnc(C)n1-2 (stereo not shown) ; Kd observed: 75 nM

Reported Kd ( Cc1sc2c(c1C)C(c1ccc(Cl)cc1)=NC(CC(=O)N1CCC3(CC1)CC(n1cc(C4CN(Cc5ccccn5)C(=O)C5CCCC4N5S(=O)(=O)c4cc(Cl)cc(Cl)c4)nn1)C3)c1nnc(C)n1-2 (stereo not shown) [a13c] ) = 600 nM

// Kd value for Cc1sc2c(c1C)C(c1ccc(C#CCNC(=O)COCCn3cc(C4CN(Cc5ccccn5)C(=O)C5CCCC4N5S(=O)(=O)c4cc(Cl)cc(Cl)c4)nn3)cc1)=NC(CC(=O)OC(C)(C)C)c1nnc(C)n1-2 (stereo not shown) : 4 nM

Consider now this further molecule.
Looking up Cc1sc2c(c1C)C(c1ccc(Cl)cc1)=NC(CC(=O)NCCOCCn1cc(COCC3CN(C(C)c4ccccn4)C(=O)C4CCCC3N4S(=O)(=O)c3cc(Cl)cc(Cl)c3)nn1)c1nnc(C)n1-2 (stereo not shown) , I see its Kd listed as 48 nM

Recorded values, source paper PMC13586308.
